Target: Proto-oncogene tyrosine-protein kinase Src (Rattus norvegicus)
Sequence (Q9WUD9 2-536 limits assumed): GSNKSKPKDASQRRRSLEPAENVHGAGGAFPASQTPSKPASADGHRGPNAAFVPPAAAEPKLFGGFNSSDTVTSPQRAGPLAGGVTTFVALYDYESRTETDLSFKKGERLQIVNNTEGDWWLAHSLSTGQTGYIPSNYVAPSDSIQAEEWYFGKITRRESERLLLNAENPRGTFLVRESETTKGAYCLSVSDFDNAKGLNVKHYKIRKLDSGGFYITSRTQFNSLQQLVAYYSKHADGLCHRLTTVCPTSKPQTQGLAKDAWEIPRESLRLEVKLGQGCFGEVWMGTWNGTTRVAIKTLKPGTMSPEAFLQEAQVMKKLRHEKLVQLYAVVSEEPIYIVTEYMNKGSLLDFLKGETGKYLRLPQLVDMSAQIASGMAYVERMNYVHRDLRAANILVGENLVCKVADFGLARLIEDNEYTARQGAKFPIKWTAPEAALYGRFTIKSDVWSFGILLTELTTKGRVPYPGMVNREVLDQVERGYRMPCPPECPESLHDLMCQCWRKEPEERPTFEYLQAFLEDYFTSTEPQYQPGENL
Assay: Inhibition of v-Src tyrosine kinase autophosphorylation in SR3Y1 cells after 15 hr
observation type: IC50 (nM)
Number only, in nM; omit the unit.

Lab book: IC50 of C[C@@H]1C[C@H]2O[C@@H]2\C=C/C=C/C(=N\OCC(=O)N2CCN(C)CC2)Cc2c(Cl)c(O)cc(O)c2C(=O)O1 noted as 13

From: BindingDB's records for doi:10.1021/jm030110r
